These measurements were taken from patent US20230150997A1.

pIC50: −log10 of the molar value.
So I've got pIC50 readings for UniProt P06730, take a look.

- SMILES: "CC(C)Cc1sc(Nc2ncc(-c3cccs3)cc2C(=O)O)nc1-c1cccc(OC(C)C)c1"
  ENDPOINT_VALUE: "≥ 6.30"
- SMILES: "CC(C)COc1cc(-c2nc(Nc3ncc(-c4cccs4)cc3C(=O)O)sc2CC(C)(C)C)ccc1F"
  ENDPOINT_VALUE: "≥ 6.30"

Hey, quick one: what's pIC50 for each of these?
1. CCOc1cccc(-c2nc(Nc3ncc(-c4cccs4)cc3C(=O)O)sc2CC(C)(C)C)c1
2. COCCOc1ccc(-c2nc(Nc3ncc(-c4cccs4)cc3C(=O)O)sc2C2CC2)c(F)c1
3. CC(C)COc1cc(-c2nc(Nc3ncc(-c4cccs4)cc3C(=O)O)sc2CC(C)(C)C)ccc1Cl
4. CC(C)Cc1sc(Nc2ncc(-c3cccs3)cc2C(=O)O)nc1-c1ccc(OC(F)F)cc1

1. ≥ 6.30
2. < 6.00
3. ≥ 6.30
4. 6.00 to 6.30

Hey, quick one: what's pIC50 for each of these?
1. CC(C)Cc1sc(Nc2ncc(-c3cccs3)cc2C(=O)O)nc1-c1ccc(O)c(Cl)c1
2. COCCOc1cc(-c2nc(Nc3ncc(-c4cccs4)cc3C(=O)O)sc2CC(C)C)ccc1F

["≥ 6.30", "6.00 to 6.30"]

====

Exercise: for every item that follows, state its recorded IC50.
biological target: Human eIF4E (Homo sapiens, UniProt P06730)
Sequence (P06730 28-217): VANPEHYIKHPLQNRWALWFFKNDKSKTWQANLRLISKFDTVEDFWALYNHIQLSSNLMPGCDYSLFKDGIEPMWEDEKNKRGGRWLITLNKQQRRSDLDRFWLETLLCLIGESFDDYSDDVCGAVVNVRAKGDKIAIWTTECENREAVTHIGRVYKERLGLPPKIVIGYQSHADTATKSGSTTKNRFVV

Some compounds with known IC50 results, for comparison:
- SMILES: "COCCOc1ccc(-c2nc(Nc3ncc(-c4cccs4)cc3C(=O)O)sc2CCOC)cc1F"
  EXPERIMENTAL_SYSTEM: "Human eIF4E (Homo sapiens, UniProt P06730)"
  IC50: "500 to 1000 nM"
- SMILES: "COCCOc1ccc(-c2nc(Nc3ncc(-c4ccc(C)s4)cc3C(=O)O)sc2C2CCCC2)cc1"
  EXPERIMENTAL_SYSTEM: "Human eIF4E (Homo sapiens, UniProt P06730)"
  IC50: "≤ 500 nM"
- SMILES: "Cc1ccc(-c2nc(Nc3ncc(-c4cccs4)cc3C(=O)O)sc2CC(C)C)cc1OC(C)C"
  EXPERIMENTAL_SYSTEM: "Human eIF4E (Homo sapiens, UniProt P06730)"
  IC50: "≤ 500 nM"

// moving on: another record for IC50
Recorded IC50 for "COCCOc1ccc(-c2nc(Nc3ncc(-c4cccs4)cc3C(=O)O)sc2C2CCCC2)cc1F" with Human eIF4E (Homo sapiens, UniProt P06730), please?
500 to 1000 nM

====

Exercise: for every item that follows, state its recorded IC50.
molecular target: Human eIF4E (Homo sapiens, UniProt P06730)

Some compounds with known IC50 results, for comparison:
- SMILES: "CCN(CC)CCOCCOc1cccc(-c2nc(Nc3ncc(-c4cccs4)cc3C(=O)O)sc2CC(C)C)c1"
  IC50: "> 1 µM"
- SMILES: "CCc1cccc(-c2nc(Nc3ncc(-c4cccs4)cc3C(=O)O)sc2CC(C)C)c1"
  IC50: "≤ 0.5 µM"
- SMILES: "COCCOc1ccc(-c2nc(Nc3ncc(-c4cccc(F)c4)cc3C(=O)O)sc2CC(C)C)cc1F"
  IC50: "≤ 0.5 µM"

Hey, quick one: what's IC50 for each of these?
1. COCCOc1ccc(-c2nc(Nc3cc(-c4ccccc4)sc3C(=O)O)sc2C2CC2)cc1
2. COCCOc1ccc(-c2nc(Nc3ccc(-c4cccs4)cc3C(=O)O)sc2CC(C)C)cc1F
3. CC(C)Cc1sc(Nc2ncc(-c3cccs3)cc2C(=O)O)nc1-c1cccc(OCCF)c1

1: 0.5 to 1 µM; 2: ≤ 0.5 µM; 3: ≤ 0.5 µM

Hey, quick one: what's IC50 for each of these?
1. COc1cc(-c2nc(Nc3ncc(-c4cccs4)cc3C(=O)O)sc2CCC(C)C)ccc1Cl
2. COc1cc(-c2nc(Nc3ncc(-c4cccs4)cc3C(=O)O)sc2CC(C)C)ccc1Cl
3. CCOc1cccc(-c2nc(Nc3cc(C(=O)O)c(-c4cccs4)cn3)sc2CC(C)C)c1

1. ≤ 0.5 µM
2. ≤ 0.5 µM
3. 0.5 to 1 µM

Hey, quick one: what's IC50 for each of these?
1. COc1ccc(-c2nc(Nc3ccc(-c4cccs4)nc3C(=O)O)sc2CC(C)C)cc1F
2. COCCOc1ccc(-c2nc(Nc3ncc(-c4cccs4)cc3C(=O)O)sc2CCC(C)C)cc1F
3. COc1ccc(-c2nc(Nc3ncc(-c4cccs4)cc3C(=O)O)sc2C2CC2)cc1F
4. COc1cccc(-c2nc(Nc3ncc(-c4cccs4)cc3C(=O)O)sc2CC(C)C)c1
5. COCCOc1cccc(-c2nc(Nc3ncc(-c4cccs4)cc3C(=O)O)sc2CC(C)C)c1
6. COCCOc1ccc(-c2nc(Nc3ncc(-c4nccs4)cc3C(=O)O)sc2CC(C)C)cc1F
7. COc1cc(-c2nc(Nc3ncc(-c4cccs4)cc3C(=O)O)sc2CCC(C)C)ccc1C
8. COCCOc1ccc(-c2nc(Nc3ncc(-c4cc(C)cs4)cc3C(=O)O)sc2CC(C)C)cc1Cl

≤ 0.5 µM
≤ 0.5 µM
0.5 to 1 µM
≤ 0.5 µM
≤ 0.5 µM
≤ 0.5 µM
≤ 0.5 µM
≤ 0.5 µM

====

So I've got IC50 readings for Human eIF4E (Homo sapiens, UniProt P06730), take a look.

Some molecules with known IC50 results, for comparison:
- SMILES: "COCCOc1cc(-c2nc(Nc3ncc(-c4cccs4)cc3C(=O)O)sc2CC(C)C)ccc1C(F)(F)F"
  QUANTITY: "IC50"
  ENDPOINT_VALUE: "≤ 500 nM"
- SMILES: "CC(C)Cc1sc(Nc2ncc(-c3cccs3)cc2C(=O)O)nc1-c1cccc(OCCOCCN(C)C)c1"
  QUANTITY: "IC50"
  ENDPOINT_VALUE: "> 1000 nM"
- SMILES: "COc1ccc(-c2nc(Nc3ncc(-c4cccs4)nc3C(=O)O)sc2CCC(C)C)cc1Cl"
  QUANTITY: "IC50"
  ENDPOINT_VALUE: "≤ 500 nM"
- SMILES: "COCCOc1ccc(-c2nc(Nc3ncc(-c4cccs4)cc3C(=O)O)sc2CC(C)(C)C)cc1F"
  QUANTITY: "IC50"
  ENDPOINT_VALUE: "≤ 500 nM"
- SMILES: "CCOc1cc(-c2nc(Nc3ncc(-c4cccs4)cc3C(=O)O)sc2CC(C)(C)C)ccc1F"
  QUANTITY: "IC50"
  ENDPOINT_VALUE: "≤ 500 nM"
- SMILES: "CC(C)COc1cc(-c2nc(Nc3ncc(-c4cccs4)cc3C(=O)O)sc2CC(C)C)ccc1F"
  QUANTITY: "IC50"
  ENDPOINT_VALUE: "≤ 500 nM"
- SMILES: "COCCOc1ccc(-c2nc(Nc3ncc(-c4cccs4)cc3C(=O)O)sc2C2CC2)cc1"
  QUANTITY: "IC50"
  ENDPOINT_VALUE: "500 to 1000 nM"

// moving on: another record for IC50
Return reported IC50; argument: "COc1ccc(-c2nc(Nc3ncc(-c4cccs4)cc3C(=O)O)sc2C2CC2)cc1"
500 to 1000 nM

====

So I've got pIC50 readings for Human eIF4E (Homo sapiens), take a look.
pIC50: −log10 of the molar value.

Some compounds with known pIC50 results, for comparison:
- SMILES: "COCCOc1ccc(-c2nc(Nc3ncc(-c4cccs4)cc3C(=O)O)sc2C(C)C)cc1F"
  ENDPOINT_VALUE: "6.00 to 6.30"
- SMILES: "CC(C)Cc1sc(Nc2ncc(-c3cccs3)cc2C(=O)O)nc1-c1ccc(F)c(OCCOC(C)C)c1"
  ENDPOINT_VALUE: "≥ 6.30"
- SMILES: "COCCOc1ccc(-c2nc(Nc3ncc(-c4cccs4)cc3C(=O)O)sc2CC(C)C)cc1"
  ENDPOINT_VALUE: "≥ 6.30"

Hey, quick one: what's pIC50 for each of these?
1. CCCOc1cccc(-c2nc(Nc3ncc(-c4cccs4)cc3C(=O)O)sc2CC(C)C)c1
2. COCCOc1ccc(-c2nc(Nc3ncc(-c4cccs4)cc3C(=O)O)sc2CC2CCCCC2)cc1F
3. COc1ccc(-c2nc(Nc3ncc(-c4cccs4)cc3C(=O)O)sc2C2CC2)c(F)c1
4. CCOc1cc(-c2nc(Nc3ncc(-c4cccs4)cc3C(=O)O)sc2CC(C)C)ccc1F

1. ≥ 6.30
2. ≥ 6.30
3. 6.00 to 6.30
4. ≥ 6.30

Return reported pIC50; argument: "CC(C)Cc1sc(Nc2ncc(-c3cccs3)cc2C(=O)O)nc1-c1ccc(O)cc1"
< 6.00
